survival at 20 mg/kg overview
# Test system: Mus musculus
# test: In vivo efficacy versus methicillin resistant Staphylococcus aureus in mice administered sc at 20 mg/kg, expressed as percent survival
# Assay type: functional
# test conditions: route subcutaneous
Reply with just the number (in %).

compound_structure_string=O=C(Nc1cc(C(F)(F)F)cc(C(F)(F)F)c1)Nc1cc(-c2ccncc2)nn1-c1ccc(C(F)(F)F)cc1 numeric_readout=25
compound_structure_string=O=C(Nc1cc(C(F)(F)F)cc(C(F)(F)F)c1)Nc1c(-c2ccccc2)cnn1-c1ccc(C(F)(F)F)cc1 numeric_readout=0
compound_structure_string=O=C(Nc1cc(C(F)(F)F)cc(C(F)(F)F)c1)Nc1cc(-c2ccccc2)nn1-c1ccc(C(F)(F)F)cc1 numeric_readout=0
compound_structure_string=O=C(Nc1cc(Cl)cc(Cl)c1)Nc1cc(-c2ccccc2)nn1-c1ccc(Cl)cc1 numeric_readout=25

// query survival at 20 mg/kg value for entry O=C(Nc1cc(Cl)cc(Cl)c1)Nc1cc(-c2ccccc2)nn1-c1ccc(C(F)(F)F)cc1
12.5

Which survival at 20 mg/kg value belongs to O=C(Nc1cc(Cl)cc(Cl)c1)Nc1cc(-c2cccs2)nn1-c1ccc(Br)cc1 ?
25

Recorded survival at 20 mg/kg of COCCN(CCOC)Cc1cc(NC(=O)Nc2cc(C(F)(F)F)cc(C(F)(F)F)c2)n(-c2ccc(Br)cc2)n1 , please.
25

Bench note: what survival at 20 mg/kg did O=C(Nc1ccc(F)c(C(F)(F)F)c1)Nc1nc(-c2ccc(F)c(F)c2)cs1 show?
0

For CC(C)(C)c1cc(NC(=O)Nc2cc(Cl)cc(Cl)c2)n(-c2ccc(Br)cc2)n1 , what is its reported survival at 20 mg/kg?
0
